meta.source: patent US10981926B2

system: F876L mutant Androgen Receptor (AR-F876L) (Homo sapiens (Human), UniProt P10275, F877L)
Sequence (P10275 whole entry F877L): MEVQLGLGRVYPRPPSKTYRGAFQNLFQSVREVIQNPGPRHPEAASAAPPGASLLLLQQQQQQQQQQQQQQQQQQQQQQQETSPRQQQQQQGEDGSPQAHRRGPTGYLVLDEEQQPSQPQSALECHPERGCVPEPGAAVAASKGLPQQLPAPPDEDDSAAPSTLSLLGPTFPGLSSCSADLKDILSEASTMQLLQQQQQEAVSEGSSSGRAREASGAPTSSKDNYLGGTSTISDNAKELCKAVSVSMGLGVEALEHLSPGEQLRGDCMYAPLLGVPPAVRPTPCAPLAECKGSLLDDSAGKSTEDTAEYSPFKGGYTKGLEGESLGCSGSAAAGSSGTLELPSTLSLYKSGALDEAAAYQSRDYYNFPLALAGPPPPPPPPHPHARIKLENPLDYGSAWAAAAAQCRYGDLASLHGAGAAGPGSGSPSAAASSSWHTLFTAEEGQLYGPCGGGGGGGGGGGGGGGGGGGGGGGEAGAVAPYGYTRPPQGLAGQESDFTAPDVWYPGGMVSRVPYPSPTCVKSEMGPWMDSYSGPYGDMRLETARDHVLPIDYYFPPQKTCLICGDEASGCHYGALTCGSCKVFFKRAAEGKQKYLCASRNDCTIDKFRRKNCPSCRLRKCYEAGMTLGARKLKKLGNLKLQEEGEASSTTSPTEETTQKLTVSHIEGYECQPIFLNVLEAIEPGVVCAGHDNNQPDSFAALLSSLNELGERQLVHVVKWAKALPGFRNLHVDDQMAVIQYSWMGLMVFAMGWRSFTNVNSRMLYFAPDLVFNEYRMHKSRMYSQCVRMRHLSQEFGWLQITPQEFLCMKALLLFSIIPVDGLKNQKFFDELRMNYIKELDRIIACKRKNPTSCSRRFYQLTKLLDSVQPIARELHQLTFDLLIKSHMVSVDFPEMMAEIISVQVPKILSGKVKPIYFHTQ
experimentalProtocol: LNCaP-AR-F876L AG reporter assay (agonist mode)
Format: cell-based
cond: agonist mode; pEC50 = −Log10(EC50 in Molar); read-out: LNCaP-AR-F876L AG pEC50 (converted)
metric: EC50

Reference set, count: 2
compound	metric	valueReported
N#Cc1ncc(N2C(=O)C3(CCC3)N(c3ccc4c(ccn4CCO)c3)C2=S)cc1C(F)(F)F [Cpd 248]	EC50	> 15.1 µM
COCCn1cc2cc(N3C(=S)N(c4cnc(C#N)c(OC)c4)C(=O)C34CCC4)ccc2n1 [Cpd 175]	EC50	> 15.1 µM

// each listed compound needs a value for EC50
1. COCCn1ncc2cc(N3C(=S)N(c4cnc(C#N)c(C(F)(F)F)c4)C(=O)C34CCC4)ccc21 [Cpd 170]
2. N#Cc1ncc(N2C(=O)C3(CCC3)N(c3ccc(OC4CCN(CCO)CC4)nc3)C2=S)cc1C(F)(F)F [Cpd 63]

Completion:
1. > 15.1 µM
2. > 15.1 µM
